- assay procedure: Rat plasma metabolite profiles after single oral 5 mg/kg [14C]DCDQ
- Type: in vivo, Sprague-Dawley rats
- condition details: male, 2 hr, mean n = 3
property: Chromatographic distribution of radioactivity in rat plasma

# compound, assay result
data = [
    ("O=S(=O)(O)N1CCN2CC3=CCC=C3c3cccc(c32)C1 [Metabolite M14, di-dehydro DCDQ sulfamate]", "BQL"),
    ("O=S(=O)(O)N1CCN2C[C@@H]3CCC[C@@H]3c3cccc(c32)C1 [Metabolite M12, DCDQ sulfamate]", "BQL^c"),
    ("O=C1CC[C@@H]2c3cccc4c3N(CCNC4)C[C@H]12 [Metabolite M7, 17-keto DCDQ]", "10%"),
]
